The reported numbers originate from ChEMBL document CHEMBL6109114.

assay: Metabolic stability in human liver microsomes assessed as intrinsic clearance at 1 uM measured up to 60 mins in presence of NADPH regenerating system by LC-MS/MS analysis; type: ADME, Microsome; settings: read-out: CLH
MEASUREMENT NAME: microsomal CLint at 1 µM (µL/min/mg)
Numbers only, in µL/min/mg.

Consider the compound shown here: Cc1cc(=O)n(-c2cc(Cl)ccc2F)nc1C(=O)Nc1ccc(Oc2ccnc(NC(=O)N3CC(O)C3)c2)c(F)c1 What is its recorded microsomal CLint at 1 µM?
12.7

###

assay: Metabolic stability in Sprague-Dawley rat liver microsomes assessed as parent compound remaining at 1 uM measured after 60 mins by LC-MS/MS analysis; assay type: ADME, Microsome; conditions: read-out: Stability
MEASUREMENT NAME: remaining at 1 h, 1 µM (%)
Give bare numbers, in %.

Consider the molecule shown here: Cc1cc(=O)n(-c2cc(Cl)ccc2F)nc1C(=O)Nc1ccc(Oc2ccnc(NC(=O)N3CC(O)C3)c2)c(F)c1 What is its recorded remaining at 1 h, 1 µM?
108
